Entries and their normalized RNA/DNA level without ligand (log10) values follow.
B1: library; a variant is named by its letters at N, in order (parent)
chain: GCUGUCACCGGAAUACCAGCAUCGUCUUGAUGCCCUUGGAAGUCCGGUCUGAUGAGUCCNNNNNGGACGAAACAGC

# Variants of: B1
# Test description: normalized RNA/DNA level without ligand (relative to sTRSVctl = 100) (log10 (% of sTRSVctl)); higher = less ribozyme self-cleavage, higher mRNA level
# Measurement context: HEK293T, reporter: mCherry (pCS4076), ligand present: no
Property label: normalized RNA/DNA level without ligand (log10)

* GCUGUCACCGGAAUACCAGCAUCGUCUUGAUGCCCUUGGAAGUCCGGUCUGAUGAGUCCGAGGGGGACGAAACAGC [GAGGG] | 1.67
* GCUGUCACCGGAAUACCAGCAUCGUCUUGAUGCCCUUGGAAGUCCGGUCUGAUGAGUCCGUAGAGGACGAAACAGC [GUAGA] | 1.66
* GCUGUCACCGGAAUACCAGCAUCGUCUUGAUGCCCUUGGAAGUCCGGUCUGAUGAGUCCCAGGCGGACGAAACAGC [CAGGC] | 1.95
* GCUGUCACCGGAAUACCAGCAUCGUCUUGAUGCCCUUGGAAGUCCGGUCUGAUGAGUCCACUGUGGACGAAACAGC [ACUGU] | 1.89
* GCUGUCACCGGAAUACCAGCAUCGUCUUGAUGCCCUUGGAAGUCCGGUCUGAUGAGUCCCAAGCGGACGAAACAGC [CAAGC] | 1.99
* GCUGUCACCGGAAUACCAGCAUCGUCUUGAUGCCCUUGGAAGUCCGGUCUGAUGAGUCCAGAUGGGACGAAACAGC [AGAUG] | 1.8
* GCUGUCACCGGAAUACCAGCAUCGUCUUGAUGCCCUUGGAAGUCCGGUCUGAUGAGUCCAUGUUGGACGAAACAGC [AUGUU] | 1.87
* GCUGUCACCGGAAUACCAGCAUCGUCUUGAUGCCCUUGGAAGUCCGGUCUGAUGAGUCCGAGCUGGACGAAACAGC [GAGCU] | 1.8
* GCUGUCACCGGAAUACCAGCAUCGUCUUGAUGCCCUUGGAAGUCCGGUCUGAUGAGUCCAAUUAGGACGAAACAGC [AAUUA] | 1.63
* GCUGUCACCGGAAUACCAGCAUCGUCUUGAUGCCCUUGGAAGUCCGGUCUGAUGAGUCCAUACUGGACGAAACAGC [AUACU] | 1.79
* GCUGUCACCGGAAUACCAGCAUCGUCUUGAUGCCCUUGGAAGUCCGGUCUGAUGAGUCCAUUGAGGACGAAACAGC [AUUGA] | 1.79
* GCUGUCACCGGAAUACCAGCAUCGUCUUGAUGCCCUUGGAAGUCCGGUCUGAUGAGUCCUAGCUGGACGAAACAGC [UAGCU] | 1.93
* GCUGUCACCGGAAUACCAGCAUCGUCUUGAUGCCCUUGGAAGUCCGGUCUGAUGAGUCCUCGGUGGACGAAACAGC [UCGGU] | 1.8
* GCUGUCACCGGAAUACCAGCAUCGUCUUGAUGCCCUUGGAAGUCCGGUCUGAUGAGUCCCCUCCGGACGAAACAGC [CCUCC] | 2.04
* GCUGUCACCGGAAUACCAGCAUCGUCUUGAUGCCCUUGGAAGUCCGGUCUGAUGAGUCCAUGUGGGACGAAACAGC [AUGUG] | 1.87
* GCUGUCACCGGAAUACCAGCAUCGUCUUGAUGCCCUUGGAAGUCCGGUCUGAUGAGUCCCUCUUGGACGAAACAGC [CUCUU] | 1.91
* GCUGUCACCGGAAUACCAGCAUCGUCUUGAUGCCCUUGGAAGUCCGGUCUGAUGAGUCCCAGGAGGACGAAACAGC [CAGGA] | 1.62
* GCUGUCACCGGAAUACCAGCAUCGUCUUGAUGCCCUUGGAAGUCCGGUCUGAUGAGUCCCCAACGGACGAAACAGC [CCAAC] | 1.92
* GCUGUCACCGGAAUACCAGCAUCGUCUUGAUGCCCUUGGAAGUCCGGUCUGAUGAGUCCACACCGGACGAAACAGC [ACACC] | 2
* GCUGUCACCGGAAUACCAGCAUCGUCUUGAUGCCCUUGGAAGUCCGGUCUGAUGAGUCCUUACUGGACGAAACAGC [UUACU] | 1.93
* GCUGUCACCGGAAUACCAGCAUCGUCUUGAUGCCCUUGGAAGUCCGGUCUGAUGAGUCCCUUAUGGACGAAACAGC [CUUAU] | 1.91
* GCUGUCACCGGAAUACCAGCAUCGUCUUGAUGCCCUUGGAAGUCCGGUCUGAUGAGUCCUUUUUGGACGAAACAGC [UUUUU] | 1.95
* GCUGUCACCGGAAUACCAGCAUCGUCUUGAUGCCCUUGGAAGUCCGGUCUGAUGAGUCCUACCGGGACGAAACAGC [UACCG] | 2
* GCUGUCACCGGAAUACCAGCAUCGUCUUGAUGCCCUUGGAAGUCCGGUCUGAUGAGUCCCGAACGGACGAAACAGC [CGAAC] | 1.72
* GCUGUCACCGGAAUACCAGCAUCGUCUUGAUGCCCUUGGAAGUCCGGUCUGAUGAGUCCCGUAAGGACGAAACAGC [CGUAA] | 1.3
* GCUGUCACCGGAAUACCAGCAUCGUCUUGAUGCCCUUGGAAGUCCGGUCUGAUGAGUCCCGUAUGGACGAAACAGC [CGUAU] | 1.54
* GCUGUCACCGGAAUACCAGCAUCGUCUUGAUGCCCUUGGAAGUCCGGUCUGAUGAGUCCAAGGUGGACGAAACAGC [AAGGU] | 1.72
* GCUGUCACCGGAAUACCAGCAUCGUCUUGAUGCCCUUGGAAGUCCGGUCUGAUGAGUCCUACCUGGACGAAACAGC [UACCU] | 1.99
* GCUGUCACCGGAAUACCAGCAUCGUCUUGAUGCCCUUGGAAGUCCGGUCUGAUGAGUCCCGUCCGGACGAAACAGC [CGUCC] | 2
* GCUGUCACCGGAAUACCAGCAUCGUCUUGAUGCCCUUGGAAGUCCGGUCUGAUGAGUCCAAUUCGGACGAAACAGC [AAUUC] | 1.96
* GCUGUCACCGGAAUACCAGCAUCGUCUUGAUGCCCUUGGAAGUCCGGUCUGAUGAGUCCUUUGCGGACGAAACAGC [UUUGC] | 1.93
* GCUGUCACCGGAAUACCAGCAUCGUCUUGAUGCCCUUGGAAGUCCGGUCUGAUGAGUCCUUAAAGGACGAAACAGC [UUAAA] | 1.26
* GCUGUCACCGGAAUACCAGCAUCGUCUUGAUGCCCUUGGAAGUCCGGUCUGAUGAGUCCAAGGCGGACGAAACAGC [AAGGC] | 1.89
* GCUGUCACCGGAAUACCAGCAUCGUCUUGAUGCCCUUGGAAGUCCGGUCUGAUGAGUCCUUUGUGGACGAAACAGC [UUUGU] | 2.02
* GCUGUCACCGGAAUACCAGCAUCGUCUUGAUGCCCUUGGAAGUCCGGUCUGAUGAGUCCUUGACGGACGAAACAGC [UUGAC] | 1.93
* GCUGUCACCGGAAUACCAGCAUCGUCUUGAUGCCCUUGGAAGUCCGGUCUGAUGAGUCCUGAUCGGACGAAACAGC [UGAUC] | 1.91
* GCUGUCACCGGAAUACCAGCAUCGUCUUGAUGCCCUUGGAAGUCCGGUCUGAUGAGUCCACUCGGGACGAAACAGC [ACUCG] | 1.89
* GCUGUCACCGGAAUACCAGCAUCGUCUUGAUGCCCUUGGAAGUCCGGUCUGAUGAGUCCCCUAAGGACGAAACAGC [CCUAA] | 1.71
* GCUGUCACCGGAAUACCAGCAUCGUCUUGAUGCCCUUGGAAGUCCGGUCUGAUGAGUCCCCGUCGGACGAAACAGC [CCGUC] | 1.93
* GCUGUCACCGGAAUACCAGCAUCGUCUUGAUGCCCUUGGAAGUCCGGUCUGAUGAGUCCAACGCGGACGAAACAGC [AACGC] | 1.94
* GCUGUCACCGGAAUACCAGCAUCGUCUUGAUGCCCUUGGAAGUCCGGUCUGAUGAGUCCUCUCCGGACGAAACAGC [UCUCC] | 1.95
* GCUGUCACCGGAAUACCAGCAUCGUCUUGAUGCCCUUGGAAGUCCGGUCUGAUGAGUCCCCGAAGGACGAAACAGC [CCGAA] | 1.4
* GCUGUCACCGGAAUACCAGCAUCGUCUUGAUGCCCUUGGAAGUCCGGUCUGAUGAGUCCCAGCCGGACGAAACAGC [CAGCC] | 1.97
* GCUGUCACCGGAAUACCAGCAUCGUCUUGAUGCCCUUGGAAGUCCGGUCUGAUGAGUCCGUUUGGGACGAAACAGC [GUUUG] | 1.77
* GCUGUCACCGGAAUACCAGCAUCGUCUUGAUGCCCUUGGAAGUCCGGUCUGAUGAGUCCAGAAGGGACGAAACAGC [AGAAG] | 1.61
* GCUGUCACCGGAAUACCAGCAUCGUCUUGAUGCCCUUGGAAGUCCGGUCUGAUGAGUCCACCGCGGACGAAACAGC [ACCGC] | 1.99

From: the supplement of paper PMC6757056
